Parameter ΔTm: see the listing below.
assayInfo: Binding affinity to duplex DNA (unknown origin) assessed as change in melting temperature at 5 uM by FRET assay
Please state the figure in °C; there is no need to write the unit.

CN1CCN(CCCNc2cccc(-c3ncc(-c4cccc(-c5cnc(-c6cccc(NCCCN7CCN(C)CC7)c6)o5)c4)o3)c2)CC1	0
CCN(CC)CCNc1cccc(-c2ncc(-c3cccc(-c4cnc(-c5cccc(NCCN(CC)CC)c5)o4)c3)o2)c1	0
CN1CCN(CCCNc2cccc(-c3ncc(-c4ccc5ccc(-c6cnc(-c7cccc(NCCCN8CCN(C)CC8)c7)o6)cc5c4)o3)c2)CC1	0
CN1CCN(CCCNc2ccc(-n3cc(-c4ccc5ccc(-c6cn(-c7ccc(NCCCN8CCN(C)CC8)cc7)nn6)cc5c4)nn3)cc2)CC1	0

Note ΔTm for the molecule shown: c1cc(-c2cnc(-c3cccc(NCCN4CCCC4)c3)o2)cc(-c2cnc(-c3cccc(NCCN4CCCC4)c3)o2)c1
6.8

Note ΔTm for the molecule shown: CN1CCN(CCCNc2cccc(-n3cc(-c4ccc5ccc(-c6cn(-c7cccc(NCCCN8CCN(C)CC8)c7)nn6)cc5c4)nn3)c2)CC1
0

Note ΔTm for the molecule shown: c1cc(-c2cnc(-c3cccc(OCCN4CCCC4)c3)o2)cc(-c2cnc(-c3cccc(OCCN4CCCC4)c3)o2)c1
5.3

* * *

assayInfo: Binding affinity to 21-mer Hsp90A promoter quadruplex (unknown origin) assessed as change in melting temperature at 1 uM by FRET assay
Parameter ΔTm: see the listing below.
Please state the figure in °C; there is no need to write the unit.

See these solved cases before continuing.
c1cc(-c2cnc(-c3cccc(OCCN4CCCC4)c3)o2)cc(-c2cnc(-c3cccc(OCCN4CCCC4)c3)o2)c1	3.4
CN1CCN(CCCNc2cccc(-c3ncc(-c4ccc5ccc(-c6cnc(-c7cccc(NCCCN8CCN(C)CC8)c7)o6)cc5c4)o3)c2)CC1	2.5
CN1CCN(CCCNc2cccc(-n3cc(-c4ccc5ccc(-c6cn(-c7cccc(NCCCN8CCN(C)CC8)c7)nn6)cc5c4)nn3)c2)CC1	5.7

Note ΔTm for the molecule shown: c1cc(-c2cnc(-c3cccc(CN4CCCCC4)c3)o2)cc(-c2cnc(-c3cccc(CN4CCCCC4)c3)o2)c1
5

* * *

assayInfo: Binding affinity to c-kit2 G4-quadruplex DNA (unknown origin) assessed as change in melting temperature at 5 uM by FRET assay
readoutLabel: ΔTm (°C)
Please state the figure in °C; there is no need to write the unit.

See these solved cases before continuing.
CCN(CC)CCNc1cccc(-c2ncc(-c3cccc(-c4cnc(-c5cccc(NCCN(CC)CC)c5)o4)c3)o2)c1	13.6
c1cc(-c2cnc(-c3cccc(NCCN4CCCC4)c3)o2)cc(-c2cnc(-c3cccc(NCCN4CCCC4)c3)o2)c1	17
c1cc(-c2cnc(-c3cccc(OCCN4CCCC4)c3)o2)cc(-c2cnc(-c3cccc(OCCN4CCCC4)c3)o2)c1	20.3

Continue with the compound presented below.
Note ΔTm for the compound shown: CN1CCN(CCCNc2cccc(-c3ncc(-c4cccc(-c5cnc(-c6cccc(NCCCN7CCN(C)CC7)c6)o5)c4)o3)c2)CC1
18.3

* * *

Parameter ΔTm: see the listing below.
Species on record: Homo sapiens
assayInfo: Binding affinity to human F21T G4-telomeric quadruplex assessed as change in melting temperature at 5 uM by FRET assay
Please state the figure in °C; there is no need to write the unit.

See these solved cases before continuing.
c1cc(-c2cnc(-c3cccc(NCCN4CCCC4)c3)o2)cc(-c2cnc(-c3cccc(NCCN4CCCC4)c3)o2)c1	24.7
CCN(CC)CCNc1cccc(-c2ncc(-c3cccc(-c4cnc(-c5cccc(NCCN(CC)CC)c5)o4)c3)o2)c1	13.3
CN1CCN(CCCNc2cccc(-c3ncc(-c4cccc(-c5cnc(-c6cccc(NCCCN7CCN(C)CC7)c6)o5)c4)o3)c2)CC1	20.1

Note ΔTm for the molecule shown: c1cc(-c2cnc(-c3cccc(OCCN4CCCC4)c3)o2)cc(-c2cnc(-c3cccc(OCCN4CCCC4)c3)o2)c1
25.9

* * *

Parameter ΔTm: see the listing below.
assayInfo: Binding affinity to 21-mer Hsp90A promoter quadruplex (unknown origin) assessed as change in melting temperature at 5 uM by FRET assay
Please state the figure in °C; there is no need to write the unit.

c1cc(-c2cnc(-c3cccc(OCCN4CCCC4)c3)o2)cc(-c2cnc(-c3cccc(OCCN4CCCC4)c3)o2)c1	27.7
CN1CCN(CCCNc2cccc(-c3ncc(-c4cccc(-c5cnc(-c6cccc(NCCCN7CCN(C)CC7)c6)o5)c4)o3)c2)CC1	25.6

Continue with the compound presented below.
Note ΔTm for the compound shown: CCN(CC)CCNc1cccc(-c2ncc(-c3cccc(-c4cnc(-c5cccc(NCCN(CC)CC)c5)o4)c3)o2)c1
19.5

* * *

assayInfo: Binding affinity to c-kit2 G4-quadruplex DNA (unknown origin) assessed as change in melting temperature at 5 uM by FRET assay
Parameter ΔTm: see the listing below.

CN1CCN(CCCNc2ccc(-n3cc(-c4ccc5ccc(-c6cn(-c7ccc(NCCCN8CCN(C)CC8)cc7)nn6)cc5c4)nn3)cc2)CC1	< 10 °C

Note ΔTm for the compound shown: CN1CCN(CCCNc2cccc(-n3cc(-c4ccc5ccc(-c6cn(-c7cccc(NCCCN8CCN(C)CC8)c7)nn6)cc5c4)nn3)c2)CC1
< 10 °C

Note ΔTm for the compound shown: CN1CCN(CCCNc2cccc(-c3ncc(-c4ccc5ccc(-c6cnc(-c7cccc(NCCCN8CCN(C)CC8)c7)o6)cc5c4)o3)c2)CC1
< 10 °C

* * *

Species: Homo sapiens
assayInfo: Binding affinity to human F21T G4-telomeric quadruplex assessed as change in melting temperature at 5 uM by FRET assay
Parameter ΔTm: see the listing below.

See these solved cases before continuing.
CN1CCN(CCCNc2cccc(-n3cc(-c4ccc5ccc(-c6cn(-c7cccc(NCCCN8CCN(C)CC8)c7)nn6)cc5c4)nn3)c2)CC1	< 10 °C
CN1CCN(CCCNc2cccc(-c3ncc(-c4ccc5ccc(-c6cnc(-c7cccc(NCCCN8CCN(C)CC8)c7)o6)cc5c4)o3)c2)CC1	< 10 °C

Continue with the compound presented below.
Note ΔTm for the compound shown: CN1CCN(CCCNc2ccc(-n3cc(-c4ccc5ccc(-c6cn(-c7ccc(NCCCN8CCN(C)CC8)cc7)nn6)cc5c4)nn3)cc2)CC1
< 10 °C

* * *

Parameter ΔTm: see the listing below.
assayInfo: Binding affinity to 21-mer Hsp90A promoter quadruplex (unknown origin) assessed as change in melting temperature at 5 uM by FRET assay

See these solved cases before continuing.
CN1CCN(CCCNc2cccc(-c3ncc(-c4ccc5ccc(-c6cnc(-c7cccc(NCCCN8CCN(C)CC8)c7)o6)cc5c4)o3)c2)CC1	< 10 °C
CN1CCN(CCCNc2cccc(-n3cc(-c4ccc5ccc(-c6cn(-c7cccc(NCCCN8CCN(C)CC8)c7)nn6)cc5c4)nn3)c2)CC1	< 10 °C

Continue with the compound presented below.
Note ΔTm for the compound shown: CN1CCN(CCCNc2ccc(-n3cc(-c4ccc5ccc(-c6cn(-c7ccc(NCCCN8CCN(C)CC8)cc7)nn6)cc5c4)nn3)cc2)CC1
< 10 °C

Numbers sourced from ChEMBL document CHEMBL2424650.
